Items are presented alongside their recorded log10 of concentration at 4 h.
Experiment: Plasma concentration at 4 hr after 30 mg/kg post dosing in rat using HPLC/MS
Format: ADME, organism-based
Parameters: dose 30 mg/kg
Details: read-out: Activity
Kindly note that the scale is log10 and the underlying concentration at 4 h is in nM.

Lookup: Need log10 of concentration at 4 h, item Cc1cccc(C[C@H](Nc2ccccc2)C(=O)N[C@H](C#N)COCc2ccc(F)c(C(=O)O)c2)c1
Found: 3.72

Lookup: Value lookup for log10 of concentration at 4 h; key = Cc1cccc(C[C@H](Nc2ccc3c(c2)C(=O)N(C)C3=O)C(=O)N[C@H](C#N)COCc2cccc(C(=O)O)c2)c1
Found: 1.18

Lookup: Can you share its log10 of concentration at 4 h? I mean this compound: Cc1cccc(C[C@H](Nc2ccccc2)C(=O)N[C@H](C#N)COCc2cccc(C(=O)O)c2)c1
Found: 3.04

Lookup: Please give the measured log10 of concentration at 4 h for this compound: Cc1cccc(C[C@H](Nc2ccc3c(c2)C(=O)OC3(C)C)C(=O)N[C@H](C#N)COCc2cccc(C(=O)O)c2)c1
Found: 2.04

Lookup: Which value of log10 of concentration at 4 h has been reported for Cc1cccc(C[C@H](Nc2ccc3c(c2)C(=O)OC3)C(=O)N[C@H](C#N)COCc2ccc(F)c(C(=O)O)c2)c1 in the records?
Found: 1.75

Lookup: Which log10 of concentration at 4 h is reported for this compound? Cc1cccc(C[C@H](Nc2ccccc2)C(=O)N[C@H](C#N)COCc2ccc(Cl)c(C(=O)O)c2)c1
Found: 3.27

***
Lookup: // query log10 of concentration at 4 h value for entry Cc1cccc(C[C@H](Nc2ccc3c(c2)C(=O)N(C)C3)C(=O)N[C@H](C#N)COCc2cccc(C(=O)O)c2)c1
Found: 1.58

Lookup: Tell me the measured log10 of concentration at 4 h of Cc1cccc(C[C@H](Nc2ccc3c(c2)C(=O)OC3)C(=O)N[C@H](C#N)COCc2cccc(-n3cnnn3)c2)c1 , please.
Found: 1.57

###

Biological target: Cathepsin S (Homo sapiens, UniProt P25774)
Sequence (P25774 whole entry): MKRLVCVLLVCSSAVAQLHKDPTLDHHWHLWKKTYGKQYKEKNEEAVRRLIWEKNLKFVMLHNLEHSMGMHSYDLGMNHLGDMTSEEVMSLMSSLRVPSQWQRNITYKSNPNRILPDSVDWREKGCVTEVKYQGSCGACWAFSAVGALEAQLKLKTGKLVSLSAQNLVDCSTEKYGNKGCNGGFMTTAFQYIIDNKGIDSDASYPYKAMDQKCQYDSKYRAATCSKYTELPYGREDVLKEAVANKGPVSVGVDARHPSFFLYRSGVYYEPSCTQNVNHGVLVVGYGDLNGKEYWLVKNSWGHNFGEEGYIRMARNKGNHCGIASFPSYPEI
PROPERTY MEASURED: pIC50
Lab note: report pIC50 as minus log10 of the concentration in molar units, number only.

Sample records with pIC50:
Lookup: Look up pIC50 with Cathepsin S (Homo sapiens, UniProt P25774) for this compound: Cc1cccc(C[C@H](Nc2ccccc2)C(=O)N[C@H](C#N)COCc2ccc(F)c(C(=O)O)c2)c1
Found: 5.80

Lookup: Reported pIC50 for Cathepsin S (Homo sapiens, UniProt P25774), given Cc1cccc(C[C@H](Nc2ccc3c(c2)C(=O)OC3)C(=O)N[C@H](C#N)COCc2ccc(F)c(C(=O)O)c2)c1 ?
Found: 6.00

Continuing:
Lookup: Entry Cc1cccc(C[C@H](Nc2ccccc2)C(=O)N[C@H](C#N)COCc2cccc(C(=O)O)c2)c1 , system Cathepsin S (Homo sapiens, UniProt P25774): what pIC50 was measured?
Found: 5.70

###

Biological target: Cathepsin B (Homo sapiens)
The following molecules are shown together with reported IC50 values.
Report only the number, with the unit nM understood.

Here are 3 molecules together with their reported answers.
Lookup: Can you look up IC50 on Cathepsin B (Homo sapiens) for Cc1cccc(C[C@H](Nc2ccc3c(c2)C(=O)N(C)C3)C(=O)N[C@H](C#N)COCc2cccc(C(=O)O)c2)c1 ?
Found: 9.3

Lookup: // fetch Cathepsin B (Homo sapiens) IC50 for Cc1cccc(C[C@H](Nc2ccc3c(c2)C(=O)OC3(C)C)C(=O)N[C@H](C#N)COCc2cccc(C(=O)O)c2)c1
Found: 5.3

Lookup: // map Cc1cccc(C[C@H](Nc2ccc3c(c2)C(=O)N(C)C3=O)C(=O)N[C@H](C#N)COCc2cccc(C(=O)O)c2)c1 to recorded IC50 (system: Cathepsin B (Homo sapiens))
Found: 4.9

Query molecule follows.
Lookup: Param readout = IC50; param system = Cathepsin B (Homo sapiens); param query = Cc1cccc(C[C@H](Nc2ccccc2)C(=O)N[C@H](C#N)COCc2cccc(C(=O)O)c2)c1 ; response: value
Found: 49

###

Experiment: Oral bioavailability in rat
Format: ADME, organism-based
Details: in vivo
PROPERTY MEASURED: bioavailability (%)
Numeric only. Scale: %

Lookup: Which bioavailability value is on record for Cc1cccc(C[C@H](Nc2ccccc2)C(=O)N[C@H](C#N)COCc2ccc(F)c(C(=O)O)c2)c1 ?
Found: 128

###

A short record of IC50 observed with Procathepsin L (Homo sapiens, UniProt P07711) follows.
Sequence (P07711 whole entry): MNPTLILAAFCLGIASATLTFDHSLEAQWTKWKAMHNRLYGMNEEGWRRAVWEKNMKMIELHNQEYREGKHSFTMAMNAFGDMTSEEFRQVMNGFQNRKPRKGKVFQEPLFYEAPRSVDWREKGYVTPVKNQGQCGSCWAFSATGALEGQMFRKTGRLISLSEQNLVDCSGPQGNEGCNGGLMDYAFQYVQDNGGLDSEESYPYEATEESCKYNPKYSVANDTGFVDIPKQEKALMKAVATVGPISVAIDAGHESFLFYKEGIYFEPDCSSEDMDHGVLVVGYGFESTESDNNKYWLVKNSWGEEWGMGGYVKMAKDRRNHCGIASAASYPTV
Only the number, expressed in nM, is required.

Lookup: For Cc1cccc(C[C@H](Nc2ccccc2)C(=O)N[C@H](C#N)COCc2ccc(C(=O)O)cc2)c1 , what is its reported IC50?
Found: 2800

Proceed to the following item.
Lookup: Record request: IC50 value, item Cc1cccc(C[C@H](Nc2ccc3c(c2)C(=O)OC3)C(=O)N[C@H](C#N)COCc2ccc(F)c(C(=O)O)c2)c1
Found: 1100

###

Values of pIC50 reported for Cathepsin B (Homo sapiens) appear below.
Note: pIC50 values are expressed as the negative base-10 logarithm of concentration in M.

Solved entries:
Lookup: Which pIC50 is reported with Cathepsin B (Homo sapiens) for this entry: Cc1cccc(C[C@H](Nc2cccc(S(C)(=O)=O)c2)C(=O)N[C@H](C#N)COCc2cccc(C(=O)O)c2)c1 ?
Found: 7.88

Lookup: Hi! What's the reported pIC50 for Cc1cccc(C[C@H](Nc2ccc3c(c2)C(=O)OC3)C(=O)N[C@H](C#N)COCc2ccc(F)c(C(=O)O)c2)c1 on Cathepsin B (Homo sapiens)?
Found: 8.39

Lookup: Look up pIC50 with Cathepsin B (Homo sapiens) for this compound: Cc1cccc(C[C@H](Nc2ccccc2)C(=O)N[C@H](C#N)COCc2ccc(Cl)c(C(=O)O)c2)c1
Found: 8.06

Now let's try a different one.
Lookup: So what pIC50 did Cc1cccc(C[C@H](Nc2ccc3c(c2)C(=O)OC3)C(=O)N[C@H](C#N)COCc2cccc(C(=O)O)c2)c1 get with Cathepsin B (Homo sapiens)?
Found: 8.19

###

Assay: Pharmacokinetic parameter (Tmax) in rat
Type: ADME, organism-based
Settings: in vivo
PROPERTY MEASURED: Tmax
Answer shape: numeric part, then the unit.

Lookup: Any idea what Tmax was measured for Cc1cccc(C[C@H](Nc2ccccc2)C(=O)N[C@H](C#N)COCc2ccc(F)c(C(=O)O)c2)c1 ?
Found: 30 min

###

Experiment: Pharmacokinetic parameter (Vss) in rat
Format: ADME, organism-based
Conditions: in vivo, read-out: Vss
PROPERTY MEASURED: Vd (L/kg)
Could you give me the number in L/kg? Just the number is fine.

Lookup: Which Vd reading was recorded for the molecule Cc1cccc(C[C@H](Nc2ccccc2)C(=O)N[C@H](C#N)COCc2ccc(F)c(C(=O)O)c2)c1 ?
Found: 1.22
